tested system: CYP3A4 (Homo sapiens, UniProt P08684)
Sequence (P08684 whole entry): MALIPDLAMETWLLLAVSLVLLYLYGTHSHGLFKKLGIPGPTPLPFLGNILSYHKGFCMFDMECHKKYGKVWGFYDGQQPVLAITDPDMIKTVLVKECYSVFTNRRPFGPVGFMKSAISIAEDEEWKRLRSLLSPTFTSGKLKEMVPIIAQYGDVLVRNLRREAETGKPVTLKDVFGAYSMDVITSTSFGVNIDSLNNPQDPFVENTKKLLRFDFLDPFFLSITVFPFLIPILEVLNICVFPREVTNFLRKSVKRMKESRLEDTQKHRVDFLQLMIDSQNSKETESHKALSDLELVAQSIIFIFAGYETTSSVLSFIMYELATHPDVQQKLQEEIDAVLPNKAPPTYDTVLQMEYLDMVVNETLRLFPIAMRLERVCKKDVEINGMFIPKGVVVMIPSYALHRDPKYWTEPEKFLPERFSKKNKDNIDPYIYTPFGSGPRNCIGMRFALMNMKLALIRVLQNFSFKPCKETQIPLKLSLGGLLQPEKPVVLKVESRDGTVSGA
method summary: in vitro
stated conditions: pH 7.4
outcome measure: Km at 20 min (µM)
Reply with just the number (in µM).

Request: Quick check: Km at 20 min of C[C@]12CC[C@H]3[C@@H](CCC4=CC(=O)CC[C@@]43C)[C@@H]1CC[C@@H]2O [testosterone] ?
Response: 283

###

tested system: CYP2C9 (Homo sapiens, UniProt P11712)
Sequence (P11712 whole entry): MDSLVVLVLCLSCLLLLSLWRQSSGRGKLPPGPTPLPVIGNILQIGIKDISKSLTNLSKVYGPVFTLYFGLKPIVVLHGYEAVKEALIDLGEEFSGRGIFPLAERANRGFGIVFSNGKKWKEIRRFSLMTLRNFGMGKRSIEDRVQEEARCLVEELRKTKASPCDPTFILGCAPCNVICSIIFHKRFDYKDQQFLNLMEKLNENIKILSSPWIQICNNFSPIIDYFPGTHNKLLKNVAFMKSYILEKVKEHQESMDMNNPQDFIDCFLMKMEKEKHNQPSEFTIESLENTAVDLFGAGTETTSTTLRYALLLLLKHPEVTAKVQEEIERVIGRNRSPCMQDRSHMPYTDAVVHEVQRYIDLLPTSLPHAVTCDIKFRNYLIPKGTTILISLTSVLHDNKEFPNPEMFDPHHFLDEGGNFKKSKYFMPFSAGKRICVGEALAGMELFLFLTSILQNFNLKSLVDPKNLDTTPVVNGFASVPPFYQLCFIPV
outcome measure: IC50

Request: // returns reported IC50 for input CN1CC2c3ccccc3Oc3ccc(Cl)cc3C2C1 (stereo not shown)
Response: > 1000 µM

###

tested system: UniProt:P11712
outcome measure: IC50

Request: Tell me the measured IC50 of CN1CC2c3ccccc3Oc3ccc(Cl)cc3C2C1 (stereo not shown) , please.
Response: > 1000 µM

###

tested system: CYP1A2 (Homo sapiens)
Sequence (P05177 1-516): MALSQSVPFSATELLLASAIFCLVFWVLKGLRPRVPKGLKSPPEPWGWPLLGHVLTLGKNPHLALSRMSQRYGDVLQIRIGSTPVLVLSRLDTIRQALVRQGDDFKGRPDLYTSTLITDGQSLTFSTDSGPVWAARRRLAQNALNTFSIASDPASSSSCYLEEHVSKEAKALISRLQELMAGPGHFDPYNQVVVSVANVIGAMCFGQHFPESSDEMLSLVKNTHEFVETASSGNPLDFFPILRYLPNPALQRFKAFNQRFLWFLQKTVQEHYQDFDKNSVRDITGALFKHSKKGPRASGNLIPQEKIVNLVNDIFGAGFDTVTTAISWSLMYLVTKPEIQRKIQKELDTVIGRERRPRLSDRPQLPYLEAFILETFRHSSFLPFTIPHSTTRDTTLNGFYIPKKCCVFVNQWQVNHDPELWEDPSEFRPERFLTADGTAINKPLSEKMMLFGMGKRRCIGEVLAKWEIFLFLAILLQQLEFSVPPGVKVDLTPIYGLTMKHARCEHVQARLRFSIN
outcome measure: pKi
Hey, just a heads up that pKi is the negative log base 10 of the concentration in molar.

Request: For the compound shown here, CN1CC2c3ccccc3Oc3ccc(Cl)cc3C2C1 (stereo not shown) [Asenapine] , give the reported pKi.
Response: 5.49

###

tested system: CYP3A4 (Homo sapiens, UniProt P08684)
method summary: in vitro
stated conditions: pH 7.4
outcome measure: Km at 30 min (µM)
State just the number; it will be interpreted in µM.

Request: Entry `C[C@]12CC[C@H]3[C@@H](CCC4=CC(=O)CC[C@@]43C)[C@@H]1CC[C@@H]2O` has what Km at 30 min?
Response: 428

###

tested system: CYP2D6 (Homo sapiens)
Sequence (P10635 whole entry): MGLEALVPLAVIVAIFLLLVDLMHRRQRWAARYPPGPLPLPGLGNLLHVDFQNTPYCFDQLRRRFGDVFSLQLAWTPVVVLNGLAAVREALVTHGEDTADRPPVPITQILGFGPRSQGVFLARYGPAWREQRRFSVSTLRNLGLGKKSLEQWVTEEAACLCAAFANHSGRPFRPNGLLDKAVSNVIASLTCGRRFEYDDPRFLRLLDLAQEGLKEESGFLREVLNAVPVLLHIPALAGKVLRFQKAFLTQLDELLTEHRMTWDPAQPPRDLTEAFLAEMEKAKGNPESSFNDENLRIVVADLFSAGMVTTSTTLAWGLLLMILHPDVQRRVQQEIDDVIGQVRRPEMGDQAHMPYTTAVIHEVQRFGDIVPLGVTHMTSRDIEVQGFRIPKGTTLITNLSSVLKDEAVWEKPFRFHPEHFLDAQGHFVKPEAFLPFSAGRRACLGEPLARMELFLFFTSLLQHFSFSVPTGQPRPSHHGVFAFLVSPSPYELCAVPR
outcome measure: pKi
Friendly reminder that pKi comes from taking -log10 of the concentration in mol/L.

Request: Fill in: pKi of CN1CC2c3ccccc3Oc3ccc(Cl)cc3C2C1 (stereo not shown) is ___
Response: 5.76

###

tested system: CYP2C9 (Homo sapiens, UniProt P11712)
method summary: in vitro
stated conditions: human, pH 7.4
outcome measure: Km at 30 min (µM)
Give the value in µM but do not write µM after it.

Request: What value of measured Km at 30 min is listed for O=C(O)Cc1ccccc1Nc1c(Cl)cccc1Cl [diclofenac] ?
Response: 137

###

tested system: CYP2C9 (Homo sapiens)
method summary: CYP2C9 activity, diclofenac 4′-hydroxylation, Supersomes CYP2C9
stated conditions: human, pH 7.4, probe diclofenac (4′-hydroxylation)
outcome measure: Km at 30 min
Answer as a quantity: numeral, then unit.

Request: Which measured Km at 30 min belongs to O=C(O)Cc1ccccc1Nc1c(Cl)cccc1Cl [diclofenac] , tested on CYP2C9 (Homo sapiens)?
Response: 132 µM
